- MEASUREMENT TARGET: TLR7/NFKb HEK cells (Homo sapiens)
- Sequence (Q9NYK1 27-1049): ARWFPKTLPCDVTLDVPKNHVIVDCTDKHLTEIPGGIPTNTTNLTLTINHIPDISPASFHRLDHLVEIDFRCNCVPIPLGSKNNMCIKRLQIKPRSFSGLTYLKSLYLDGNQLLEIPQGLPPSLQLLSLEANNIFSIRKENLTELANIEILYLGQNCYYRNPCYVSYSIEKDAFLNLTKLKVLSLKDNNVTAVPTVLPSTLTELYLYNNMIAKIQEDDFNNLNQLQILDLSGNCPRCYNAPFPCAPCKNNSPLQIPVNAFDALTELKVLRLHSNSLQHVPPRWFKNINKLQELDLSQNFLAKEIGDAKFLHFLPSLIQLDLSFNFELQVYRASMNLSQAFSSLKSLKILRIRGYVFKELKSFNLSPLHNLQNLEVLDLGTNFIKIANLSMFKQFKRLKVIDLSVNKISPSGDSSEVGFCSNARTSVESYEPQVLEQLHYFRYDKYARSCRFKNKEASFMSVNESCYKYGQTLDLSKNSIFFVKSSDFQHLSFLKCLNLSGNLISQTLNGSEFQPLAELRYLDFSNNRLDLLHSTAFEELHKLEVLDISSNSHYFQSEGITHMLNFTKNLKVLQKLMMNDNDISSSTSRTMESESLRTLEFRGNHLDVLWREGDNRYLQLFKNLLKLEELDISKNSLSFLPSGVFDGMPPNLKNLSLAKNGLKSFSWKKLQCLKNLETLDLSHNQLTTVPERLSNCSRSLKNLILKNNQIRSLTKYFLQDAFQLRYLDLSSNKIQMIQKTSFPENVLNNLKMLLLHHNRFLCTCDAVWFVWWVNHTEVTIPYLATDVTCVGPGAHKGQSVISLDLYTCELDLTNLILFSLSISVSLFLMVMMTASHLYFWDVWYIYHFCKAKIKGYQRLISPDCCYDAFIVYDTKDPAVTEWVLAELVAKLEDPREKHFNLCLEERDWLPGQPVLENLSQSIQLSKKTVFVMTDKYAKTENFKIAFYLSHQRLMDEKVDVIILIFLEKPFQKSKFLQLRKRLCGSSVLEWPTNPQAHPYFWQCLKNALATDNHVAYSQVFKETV
- RUN DESCRIPTION: HEK Cell Assay (TLR7/NFKb reporter, Steady-Glo luciferase readout)
- ASSAY CONTEXT: 30 min compound preincubation, then R*48 agonist for 5 hours, read-out: Potency
ASSAY METRIC: IC50

Answered cases to consult:
CC(C)[C@H](O)C(=O)NC1CC(C2CC2)CN(c2ccc(C#N)c3nccnc23)C1 (single isomer, unassigned) [Compound 174] :: > 10000 nM
CN1CC(CC(=O)NC2CC(C(F)(F)F)CN(c3ccc(C#N)c4ncccc34)C2)C1 (racemic) :: < 1000 nM
C[C@H]1C[C@@H](NC(=O)C(N)C(F)(F)F)CN(c2ccc(C(F)F)c3ncccc23)C1 (single isomer, unassigned) [Compound 207] :: 1000 to 10000 nM
CC(O)C(=O)N[C@@H]1C[C@H](C)CN(c2ccc(C(F)(F)F)c3ncccc23)C1 (stereo partly shown) :: < 1000 nM
CCN(C)[C@@H](C)C(=O)N[C@@H]1C[C@H](C)CN(c2ccnc3nccnc23)C1 :: 1000 to 10000 nM
CCN(CC)CCNC(=O)C1CCN(c2ccc(C#N)c3ncncc23)CC1 :: 1000 to 10000 nM

Lab note: next compound to report on.
Prompt: Given the compound `CN(C)CCNC(=O)C1CCN(c2ccc(C#N)c3ncccc23)CC1` , write its reported IC50.
Completion: < 1000 nM
